The measured values listed here are drawn from ChEMBL document CHEMBL4219212.

molecular target: D(1A) dopamine receptor (Homo sapiens); experiment: Displacement of [3H]SCH23390 from human dopamine D1 receptor expressed in HEK293T cell membranes by radioligand binding assay
Sequence (P21728 whole entry): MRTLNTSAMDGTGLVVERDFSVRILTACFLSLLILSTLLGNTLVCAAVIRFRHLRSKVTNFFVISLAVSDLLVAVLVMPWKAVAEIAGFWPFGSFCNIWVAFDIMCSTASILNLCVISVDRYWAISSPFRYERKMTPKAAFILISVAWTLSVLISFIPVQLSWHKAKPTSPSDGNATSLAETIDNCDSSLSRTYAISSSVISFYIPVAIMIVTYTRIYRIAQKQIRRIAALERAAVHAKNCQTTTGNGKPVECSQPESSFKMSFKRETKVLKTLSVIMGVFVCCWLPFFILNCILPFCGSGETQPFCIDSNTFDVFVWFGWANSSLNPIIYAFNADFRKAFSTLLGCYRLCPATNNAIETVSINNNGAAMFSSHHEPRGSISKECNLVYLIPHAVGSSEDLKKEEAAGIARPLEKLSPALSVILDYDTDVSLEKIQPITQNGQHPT
Define the label as true (1) when Ki is strictly less than 500 nM and as false (0) in all remaining cases.

Lookup: Problem: For the compound CCCCCCCCCN1CCC(c2cccc(O)c2)C1 (single isomer, unassigned; (-)) , is Ki under 500 nM?
Found: true (1)

Lookup: Problem: For the compound CCCCCCCCCN1CCC(c2cccc(O)c2)C1 (single isomer, unassigned; (+)) , is Ki under 500 nM?
Found: false (0)

Lookup: Problem: For the compound CCCCCCN1CCC(c2cccc(O)c2)C1 (configuration not stated) , is Ki under 500 nM?
Found: false (0)

Lookup: Problem: For the compound CN(C)c1ccc(C(=O)NCCCCN2CCC(c3cccc(O)c3)C2)cc1 (single isomer, unassigned; (-)) , is Ki under 500 nM?
Found: false (0)

Lookup: Problem: For the compound CCCCCN1CCC(c2cccc(O)c2)C1 (configuration not stated) , is Ki under 500 nM?
Found: false (0)

Lookup: Problem: For the compound CCCCCCCN1CCC(c2cccc(O)c2)C1 (configuration not stated) , is Ki under 500 nM?
Found: false (0)

Lookup: Problem: For the compound CCCCCCCCN1CCC(c2cccc(O)c2)C1 (configuration not stated) , is Ki under 500 nM?
Found: true (1)

Lookup: Problem: For the compound CN(C)c1ccc(C(=O)NCCCCN2CCC(c3cccc(O)c3)C2)cc1 (racemic) , is Ki under 500 nM?
Found: false (0)

Lookup: Problem: For the compound CN(C)c1ccc(C(=O)NCCCCN2CCC(c3cccc(O)c3)C2)cc1 (single isomer, unassigned; (+)) , is Ki under 500 nM?
Found: false (0)

Lookup: Problem: For the compound CCCCN1CCC(c2cccc(O)c2)C1 (configuration not stated) , is Ki under 500 nM?
Found: false (0)

Lookup: Problem: For the compound CCCCCCCCCN1CCC(c2cccc(O)c2)C1 (racemic) , is Ki under 500 nM?
Found: true (1)

Lookup: Problem: For the compound CCCCCCCCCCN1CCC(c2cccc(O)c2)C1 (configuration not stated) , is Ki under 500 nM?
Found: true (1)

* * *

target: D(3) dopamine receptor (Homo sapiens)
Sequence (P35462 whole entry): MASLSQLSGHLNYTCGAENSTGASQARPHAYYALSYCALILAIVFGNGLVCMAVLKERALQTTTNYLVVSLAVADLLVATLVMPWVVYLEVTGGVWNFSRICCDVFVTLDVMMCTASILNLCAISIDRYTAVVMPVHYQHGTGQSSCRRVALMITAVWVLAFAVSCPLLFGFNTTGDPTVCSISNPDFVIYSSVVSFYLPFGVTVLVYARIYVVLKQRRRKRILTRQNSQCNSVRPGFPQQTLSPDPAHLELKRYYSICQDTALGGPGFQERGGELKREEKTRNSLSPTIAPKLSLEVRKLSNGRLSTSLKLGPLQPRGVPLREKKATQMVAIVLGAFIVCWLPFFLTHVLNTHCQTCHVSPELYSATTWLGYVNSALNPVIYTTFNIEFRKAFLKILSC
Reported property: pKi
Notebook: values listed as pKi are -log10 of the concentration (mol/L).

Here CCCN1CCC(c2cccc(O)c2)C1 (stereo unspecified) was tested on D(3) dopamine receptor (Homo sapiens), and its pKi came to 7.28
